Assay: Solubilization test of compound 1 with surfactants in FaSSIF
Type: physicochemical
Details: FaSSIF (pH 6.5) with 5 mg Solutol HS15, 50 mg API in 5 mL, 37° C., 1 h; read-out: Concentration of API in vehicle
value_kind: solubility at 1 h (µg/mL)
Give just the numeric value; µg/mL need not be written.

Endpoint output: solubility at 1 h of NS(=O)(=O)c1cc(NC(=O)Cc2ccccc2Cl)cc2nn(C(F)F)cc12 . Value? 1500

====

Experiment: Solubilization test of compound 1 with surfactants in FaSSIF
Assay type: physicochemical
Settings: FaSSIF (pH 6.5) with 5 mg Cremophor EL, 50 mg API in 5 mL, 37° C., 2 h; read-out: Concentration of API in vehicle
value_kind: solubility at 2 h (µg/mL)
// note: answer is a bare numeric in µg/mL

Fill in the blank: the reported solubility at 2 h of NS(=O)(=O)c1cc(NC(=O)Cc2ccccc2Cl)cc2nn(C(F)F)cc12 [compound 1] is ____. 1540
